Listed here: items and their measured combination Emax.
- System: OE19 (Esophageal Adenocarcinoma)
- assay explanation: combination Emax (second highest fraction inhibited in the dose matrix, 72 h); higher = more inhibition; extreme values may be limits of the assay

// below: answered compounds
C=CCn1c(=O)c2cnc(Nc3ccc(N4CCN(C)CC4)cc3)nc2n1-c1cccc(C(C)(C)O)n1 [AZD1775] + C[C@@H]1COCCN1C2=NC(=NC(=C2)C3(CC3)[S@](=N)(=O)C)C4=C5C=CNC5=NC=C4 [AZD6738] (first compound max 1 µM, partner max 10 µM) = 0.918
CN(C)CCCOc1ccc(-c2ccc3ncc4c(c3c2)n(C2CCOCC2)c(=O)n4C)cn1 [AZD0156] + C[C@@H]1COCCN1C2=NC(=NC(=C2)C3(CC3)[S@](=N)(=O)C)C4=C5C=CNC5=NC=C4 [AZD6738] (first compound max 1 µM, 7x7, partner max 10 µM) = 0.869

Challenge: Answer with the recorded combination Emax for the compound listed here: CC1(C)CCC(CN2CCN(c3ccc(C(=O)NS(=O)(=O)c4ccc(NCC5CCOCC5)c([N+](=O)[O-])c4)c(Oc4cnc5[nH]ccc5c4)c3)CC2)=C(c2ccc(Cl)cc2)C1 [Venetoclax] + CCN(CCO)CCCOc1ccc2c(Nc3cc(CC(=O)Nc4cccc(F)c4)[nH]n3)ncnc2c1 [AZD2811] (first compound max 1 µM, 7x7, partner max 1 µM)
Response given: 0.779

====

- System: C-4-I (Cervical Carcinoma)
- assay explanation: combination Emax (second highest fraction inhibited in the dose matrix, 72 h); higher = more inhibition; extreme values may be limits of the assay
result type: combination Emax

COc1cccc(OCCCN)c1-c1cc(Nc2cnc(C#N)cn2)n[nH]1 [Prexasertib] + C=CCn1c(=O)c2cnc(Nc3ccc(N4CCN(C)CC4)cc3)nc2n1-c1cccc(C(C)(C)O)n1 [AZD1775] (first compound max 1 µM, partner max 1 µM) = 0.962
Cc1c2c(nn1C)CSCc1cc(n(C)n1)CSc1cc(c3ccccc3c1)OCCCc1c(C(=O)O)n(C)c3c-2c(Cl)ccc13 [AZD5991] + CN(C)CCCOc1ccc(-c2ccc3ncc4c(c3c2)n(C2CCOCC2)c(=O)n4C)cn1 [AZD0156] (first compound max 1 µM, 7x7, partner max 1 µM) = 1
Cn1cnc2c(F)c(Nc3ccc(Br)cc3Cl)c(C(=O)NOCCO)cc21 [Selumetinib] + CCN(CCO)CCCOc1ccc2c(Nc3cc(CC(=O)Nc4cccc(F)c4)[nH]n3)ncnc2c1 [AZD2811] (first compound max 10 µM, 7x7, partner max 1 µM) = 0.66
Cc1cc2ncnn2cc1Nc1ncc2c(n1)n(C1CCOCC1)c(=O)n2C [AZD7648] + C=CCn1c(=O)c2cnc(Nc3ccc(N4CCN(C)CC4)cc3)nc2n1-c1cccc(C(C)(C)O)n1 [AZD1775] (first compound max 10 µM, partner max 1 µM) = 0.899
COc1cccc(OCCCN)c1-c1cc(Nc2cnc(C#N)cn2)n[nH]1 [Prexasertib] + O=C(c1cc(Cc2n[nH]c(=O)c3ccccc23)ccc1F)N1CCN(C(=O)C2CC2)CC1 [Olaparib] (first compound max 1 µM, 7x7, partner max 10 µM) = 0.929

# input for lookup
Challenge: Give the value of combination Emax reported for the following: Cn1cnc2c(F)c(Nc3ccc(Br)cc3Cl)c(C(=O)NOCCO)cc21 [Selumetinib] + C[C@@H]1COCCN1C2=NC(=NC(=C2)C3(CC3)[S@](=N)(=O)C)C4=C5C=CNC5=NC=C4 [AZD6738] (first compound max 10 µM, 7x7, partner max 10 µM)
Response given: 0.908

The values you see were collected from the supplement of paper PMC11061612.
